methodNotes: logP determined by HPLC
Format: physicochemical
assayContext: preparation examples; where two values are given they are the stereoisomers of the product mixture; read-out: HPLC: logP
# chromatographic logP per record follows
measuredParameter: chromatographic logP

1) CON=C1C(=NO)Oc2ccccc21 1.56
2) CON=C1COc2ccc(C)cc21 2.88
3) CON=C(C[N+](=O)[O-])c1ccccc1O 1.87
4) CON=C1C(=NOCCO)Oc2ccccc21 1.65
